TESTED ON: Src tyrosine kinase (p60^c-src) (Homo sapiens, UniProt P12931)
Sequence (P12931 whole entry): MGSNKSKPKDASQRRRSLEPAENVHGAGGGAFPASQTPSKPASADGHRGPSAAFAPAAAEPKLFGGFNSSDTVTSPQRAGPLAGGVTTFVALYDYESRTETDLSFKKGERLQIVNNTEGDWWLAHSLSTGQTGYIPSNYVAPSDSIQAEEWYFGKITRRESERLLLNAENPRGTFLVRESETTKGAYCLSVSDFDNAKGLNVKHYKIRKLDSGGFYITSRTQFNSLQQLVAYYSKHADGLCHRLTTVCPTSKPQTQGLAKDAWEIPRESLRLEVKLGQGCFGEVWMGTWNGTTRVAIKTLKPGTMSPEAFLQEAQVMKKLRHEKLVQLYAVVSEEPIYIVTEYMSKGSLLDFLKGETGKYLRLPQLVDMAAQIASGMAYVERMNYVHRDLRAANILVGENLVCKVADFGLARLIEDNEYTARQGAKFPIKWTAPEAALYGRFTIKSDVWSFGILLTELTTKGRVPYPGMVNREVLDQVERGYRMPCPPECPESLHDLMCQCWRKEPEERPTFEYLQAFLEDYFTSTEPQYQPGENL
pIC50: −log10 of the molar value.
RECORDED METRIC: pIC50

Illustrative cases are given below, each with its answer.
1. Cc1ccc(O)cc1-n1nc2c(c1N)c(=O)[nH]c1ccccc12 :: ~9.00
2. Nc1c2c(=O)[nH]c3cc(NCCCN4CCOCC4)ccc3c2nn1-c1cccc(O)c1 :: ~9.00

Could you now consider this next compound?
// field: pIC50; key: Nc1c2c(=O)[nH]c3cc(NCCCN4CCC(O)CC4)ccc3c2nn1-c1cccc(O)c1 ; value = ~9.00
